# Measurement target: T1, human CD137-His6 (Sino Biological #10041-H08H) (human, UniProt Q07011 24-186)
# T1 construct: Bought; also called human CD137 protein; not shown: His6 tag
# Assay info: SPR Biacore, IgG
Property: koff
The number alone won't do; follow it with the unit.

Take a look at these entries with their results.
INSERT INTO measurements (binder, recorded_measurement) VALUES
  ('AG10062 (antibody, human IgG4 S228P, kappa, V domains shown, also called IgG of Fab 5404) VH: EVQLVESGGGLVQPGGSLRLSCAASGYSISSGYHWAWIRQAPGKGLEWIGEIYHSGSTYYSPSLKSRVTISRDNSKNTLYLQLNSLRAEDTAVYYCARSPYYYGVFDYWGQGTLVTVSS VL: DIQLTQSPSSLSASVGDRVTITCSASSRVGSVYWYQQKPGKAPKLLIYDASNLETGVPSRFSGSGSGTDFTLTISSLQPEDFATYYCQQYTHDPVTFGQGTKVEIKR', '0.00094 s⁻¹'),
  ('AG10124 (antibody, human IgG4 S228P, kappa, V domains shown, also called IgG of Fab 5302) VH: EVQLVESGGGLVQPGGSLRLSCAASGFSLSTGGVGVAWIRQAPGKGLEWVSSISGYGSTTYYADSVKGRFTISRDNSKNTLYLQLNSLRAEDTAVYYCAREGSDAVLGDWFGYWGQGTLVTVSS VL: DIQLTQSPSSLSASVGDRVTITCQASQDITTYLAWYQQKPGKAPKLLIYDASNRATGIPSRFSGSGSGTDFTLTISSLQPEDFATYYCQQGYYLWTFGQGTKVEIKR', '0.003 s⁻¹'),
  ('AG10079 (antibody, human IgG4 S228P, kappa, V domains shown, also called IgG of Fab 4074) VH: EVQLVESGGGLVQPGGSLRLSCAASGFSLSTGGVGVSWIRQAPGKGLEWVSSISGSGGTTYYADSVKGRFTISRDNSKNTLYLQLNSLRAEDTAVYYCARDDLYSWYFDVWGQGTLVTVSS VL: DIQLTQSPSSLSASVGDRVTITCRASQGIGSSLAWYQQKPGKAPKLLIYAASSLQSGVPSRFSGSGSGTDFTLTISSLQPEDFATYYCQQGYYTWTFGQGTKVEIKR', '0.00027 s⁻¹'),
  ('AG10057 (antibody, human IgG4 S228P, kappa, V domains shown, also called IgG of Fab 5303) VH: EVQLVESGGGLVQPGGSLRLSCAASGFSLSTSGVAVGWIRQAPGKGLEWLALIDWADDKYYSPSLKSRLTISRDNSKNTLYLQLNSLRAEDTAVYYCAREGSDAVLGDWFAYWGQGTLVTVSS VL: DIQLTQSPSSLSASVGDRVTITCRASQDISTFLAWYQQKPGKAPKLLIYDASSLESGVPSRFSGSGSGTDFTLTISSLQPEDFATYYCQQAYSIWTFGQGTKVEIKR', '0.0061 s⁻¹');

Q: Endpoint output: koff of AG10063 (antibody, human IgG4 S228P, kappa, V domains shown, also called IgG of Fab 5413) VH: EVQLVESGGGLVQPGGSLRLSCAASGFSLSTGGVAVGWIRQAPGKGLEWLALIDWDGDKSYSTSLKSRLTISRDNSKNTLYLQLNSLRAEDTAVYYCAREGSTAVVGDWFDYWGQGTLVTVSS VL: DIQLTQSPSSLSASVGDRVTITCRASQGISRYLAWYQQKPGKAPKLLIYDASNRATGIPSRFSGSGSGTDFTLTISSLQPEDFATYYCQQGYSLWTFGQGTKVEIKR . Value?
A: 0.00039 s⁻¹

Measured values drawn from patent US20190055314A1 for this set.
